Could you please report measured MIC for the items listed next?
# Test system: Staphylococcus aureus
# assay_info: microbe, parasite or virus in culture
# run_conditions: ATCC 29213
# Description: Antibacterial activity against wild type Staphylococcus aureus ATCC 29213 after 18 to 24 hrs by two-fold broth microdilution method

Field: example entries. Status: answers known.
>  <molecule_smiles>
CC(C)[C@H](NC(=O)C[C@H](NC(=O)CCCCCCCCCCCCCCCOc1ccc(CN(Cc2ccccc2)C(=O)c2cnc(N)o2)cc1)c1ccccc1)C(=O)[C@@H]1C(=O)NC(=O)[C@H]1C

>  <observed_measurement>
> 64 µg/mL

$$$$
>  <molecule_smiles>
CO[C@H]1/C=C/O[C@@]2(C)Oc3c(C)c(O)c4c(O)c(c(/C=N/N5CCN(C)CC5)c(O)c4c3C2=O)NC(=O)/C(C)=C\C=C\[C@H](C)[C@H](O)[C@@H](C)[C@@H](O)[C@@H](C)[C@H](OC(C)=O)[C@@H]1C

>  <observed_measurement>
≤ 0.03 µg/mL

$$$$
>  <molecule_smiles>
O=C(N[C@H](CO)[C@H](O)c1ccc([N+](=O)[O-])cc1)C(Cl)Cl

>  <observed_measurement>
8 µg/mL

$$$$
>  <molecule_smiles>
Nc1ncc(C(=O)N(Cc2ccccc2)Cc2ccccc2)o1

>  <observed_measurement>
> 64 µg/mL

$$$$
>  <molecule_smiles>
NC[C@H]1O[C@H](O[C@H]2[C@H](O)[C@@H](O[C@H]3O[C@H](CO)[C@@H](O)[C@H](N)[C@H]3O)[C@H](N)C[C@@H]2N)[C@H](O)[C@@H](O)[C@@H]1O

>  <observed_measurement>
4 µg/mL

$$$$

Would you mind listing MIC for each of the following compounds?
1. C/C=C/C=C/C(=O)N[C@@H](CC(=O)N[C@H](C(=O)[C@@H]1C(=O)NC(=O)[C@H]1C)C(C)C)c1ccccc1
2. CC(C)[C@H](NC(=O)C[C@H](NC(=O)CCCCCCCOc1ccc(CN(Cc2ccccc2)C(=O)c2cnc(N)o2)cc1)c1ccccc1)C(=O)[C@@H]1C(=O)NC(=O)[C@H]1C

1: 1 µg/mL; 2: 4 µg/mL

###

# Test system: Escherichia coli
# assay_info: Antibacterial activity against Escherichia coli D21 IpxC101/tolC deletion mutant after 18 to 24 hrs by two-fold broth microdilution method
# Assay type: functional
Could you please report measured MIC for the items listed next?
Answers are plain numbers, in µg/mL.

Field: example entries. Status: answers known.
>  <molecule_smiles>
Nc1ncc(C(=O)N(Cc2ccccc2)Cc2ccccc2)o1

>  <observed_measurement>
16

$$$$
>  <molecule_smiles>
O=C(N[C@H](CO)[C@H](O)c1ccc([N+](=O)[O-])cc1)C(Cl)Cl

>  <observed_measurement>
1

$$$$
>  <molecule_smiles>
C/C=C/C=C/C(=O)N[C@@H](CC(=O)N[C@H](C(=O)[C@@H]1C(=O)NC(=O)[C@H]1C)C(C)C)c1ccccc1

>  <observed_measurement>
0.5

$$$$
>  <molecule_smiles>
CO[C@H]1/C=C/O[C@@]2(C)Oc3c(C)c(O)c4c(O)c(c(/C=N/N5CCN(C)CC5)c(O)c4c3C2=O)NC(=O)/C(C)=C\C=C\[C@H](C)[C@H](O)[C@@H](C)[C@@H](O)[C@@H](C)[C@H](OC(C)=O)[C@@H]1C

>  <observed_measurement>
0.5

$$$$
>  <molecule_smiles>
NC[C@H]1O[C@H](O[C@H]2[C@H](O)[C@@H](O[C@H]3O[C@H](CO)[C@@H](O)[C@H](N)[C@H]3O)[C@H](N)C[C@@H]2N)[C@H](O)[C@@H](O)[C@@H]1O

>  <observed_measurement>
0.5

$$$$

Turning now to a further compound:
get_value(item= `CC(C)[C@H](NC(=O)C[C@H](NC(=O)CCCCCCCOc1ccc(CN(Cc2ccccc2)C(=O)c2cnc(N)o2)cc1)c1ccccc1)C(=O)[C@@H]1C(=O)NC(=O)[C@H]1C` , readout=MIC) returns 4

###

# Test system: Pseudomonas aeruginosa
# assay_info: Antibacterial activity against Pseudomonas aeruginosa PAO1 mexAB/mexCD/mexXY/mexHI/opmH deletion mutant after 18 to 24 hrs by two-fold broth microdilution method
Could you please report measured MIC for the items listed next?
One number for each entry, in µg/mL.

Would you mind listing MIC for each of the following molecules?
1. O=C(N[C@H](CO)[C@H](O)c1ccc([N+](=O)[O-])cc1)C(Cl)Cl
2. NC[C@H]1O[C@H](O[C@H]2[C@H](O)[C@@H](O[C@H]3O[C@H](CO)[C@@H](O)[C@H](N)[C@H]3O)[C@H](N)C[C@@H]2N)[C@H](O)[C@@H](O)[C@@H]1O
3. C/C=C/C=C/C(=O)N[C@@H](CC(=O)N[C@H](C(=O)[C@@H]1C(=O)NC(=O)[C@H]1C)C(C)C)c1ccccc1
4. CO[C@H]1/C=C/O[C@@]2(C)Oc3c(C)c(O)c4c(O)c(c(/C=N/N5CCN(C)CC5)c(O)c4c3C2=O)NC(=O)/C(C)=C\C=C\[C@H](C)[C@H](O)[C@@H](C)[C@@H](O)[C@@H](C)[C@H](OC(C)=O)[C@@H]1C

2
64
8
31
